Origin of measurements: patent US20240368150A1

Listing of recorded EC50 by entry.
test system: primary human T-cells;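 also: cd3-stimulated proliferation read by CellTiter-Glo after 5 days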

{"molecule": "CC(C)Nc1nnc(-c2cc3c(cc2F)S(=O)(=O)C[C@H](N)C(=O)N3Cc2ccc(Cl)cc2)o1 [Example 464]", "qualifier.symbol": "=", "EC50 (µM)": 1.13}
{"molecule": "CC(=O)N1CCC2CC2(c2nnc(-c3cc4c(cc3F)S(=O)(=O)C[C@H](N)C(=O)N4Cc3ccc(Cl)cc3)o2)C1 (stereo partly drawn) [Example 180]", "qualifier.symbol": "=", "EC50 (µM)": 2.38}
{"molecule": "CC(C)(C)NC(=O)c1nc(-c2cc3c(cc2F)S(=O)(=O)C[C@H](N)C(=O)N3Cc2ccc(OC(F)(F)F)cc2)no1 [Example 330]", "qualifier.symbol": "=", "EC50 (µM)": 1.83}
{"molecule": "[2H]C([2H])([2H])C(c1nnc(-c2ccc3c(c2)N(Cc2ccc(Cl)cc2)C(=O)[C@@H](N)CS3(=O)=O)o1)(C([2H])([2H])[2H])C([2H])([2H])[2H] [Example 380]", "qualifier.symbol": "=", "EC50 (µM)": 0.819}
{"molecule": "Cc1ccc(-c2nnc(-c3cc4c(cc3F)S(=O)(=O)C[C@H](N)C(=O)N4Cc3ccc(Cl)cc3)o2)nc1 [Example 129]", "qualifier.symbol": "=", "EC50 (µM)": 1.9}
{"molecule": "CN(C)c1nnc(-c2cc3c(cc2F)S(=O)(=O)C[C@H](N)C(=O)N3Cc2ccc(Cl)cc2)o1 [Example 465]", "qualifier.symbol": "=", "EC50 (µM)": 1.17}
{"molecule": "C#CCOCCOCCCC(C)(C)Nc1nc(-c2cc3c(cc2F)S(=O)(=O)C[C@H](N)C(=O)N3Cc2ccc(Cl)cc2)no1 [Example 203]", "qualifier.symbol": "=", "EC50 (µM)": 1.58}
{"molecule": "N[C@H]1CS(=O)(=O)c2cc(F)c(-c3nnc(C4CN(C5CC5)CC(F)(F)C4)o3)cc2N(Cc2ccc(Cl)cc2)C1=O (stereo partly drawn) [Example 159]", "qualifier.symbol": "=", "EC50 (µM)": 0.218}
{"molecule": "CN1CCN(CC(C)(C)c2nnc(-c3cc4c(cc3F)S(=O)(=O)C[C@H](N)C(=O)N4Cc3ccc(Cl)cc3)o2)CC1 [Example 148]", "qualifier.symbol": "=", "EC50 (µM)": 0.988}
{"molecule": "CC(F)(F)CNc1nnc(-c2cc3c(cc2F)S(=O)(=O)C[C@H](N)C(=O)N3Cc2ccc(Cl)cc2)o1 [Example 502]", "qualifier.symbol": ">", "EC50 (µM)": 10}
{"molecule": "CS(=O)(=O)N1CC2CC2(c2nnc(-c3cc4c(cc3F)S(=O)(=O)C[C@H](N)C(=O)N4Cc3ccc(Cl)cc3)o2)C1 (stereo partly drawn) [Example 181]", "qualifier.symbol": "=", "EC50 (µM)": 1.99}
{"molecule": "CC(C)(C)c1nnc(-c2cc3c(cc2F)S(=O)(=O)C[C@H](NC(=O)CN)C(=O)N3Cc2ccc(Cl)cc2)o1 [Example 266]", "qualifier.symbol": "=", "EC50 (µM)": 0.214}
{"molecule": "CC(C)(C)c1nnc(-c2cc3c(cc2F)S(=O)(=O)C[C@H](N)C(=O)N3Cc2ccc(OC(F)(F)C(F)F)cc2)o1 [Example 232]", "qualifier.symbol": "=", "EC50 (µM)": 0.037}
{"molecule": "COCC1(Nc2nnc(-c3ccc4c(c3)N(Cc3ccc(Cl)cc3)C(=O)[C@@H](N)CS4(=O)=O)o2)CC(F)(F)C1 [Example 403]", "qualifier.symbol": "=", "EC50 (µM)": 3.68}
{"molecule": "N[C@H]1CS(=O)(=O)c2cc(F)c(-c3nnc(NC4CCCC(F)(F)C4)o3)cc2N(Cc2ccc(Cl)cc2)C1=O (stereo partly drawn) [Example 463]", "qualifier.symbol": "=", "EC50 (µM)": 0.577}
{"molecule": "CC(C)(C#N)Nc1nc(-c2cc3c(cc2F)S(=O)(=O)C[C@H](N)C(=O)N3Cc2ccc(Cl)cc2)no1 [Example 199]", "qualifier.symbol": ">", "EC50 (µM)": 10}
{"molecule": "CC(C)(C)c1nnc(-c2ccc3c(c2)N(Cc2ccc(S(=O)(=O)C(F)(F)F)cc2)C(=O)[C@@H](N)CS3(=O)=O)o1 [Example 123]", "qualifier.symbol": "=", "EC50 (µM)": 1.65}
{"molecule": "COC1(c2nnc(-c3ccc4c(c3)N(Cc3ccc(Cl)cc3)C(=O)[C@@H](N)CS4(=O)=O)o2)CC1 [Example 365]", "qualifier.symbol": "=", "EC50 (µM)": 0.957}
{"molecule": "C#CCOCCOCCOCCCC(C)(C)c1nc(-c2cc3c(cc2F)S(=O)(=O)C[C@H](N)C(=O)N3Cc2ccc(Cl)cc2)no1 [Example 327]", "qualifier.symbol": "=", "EC50 (µM)": 2.33}
{"molecule": "CC(C)(CO)c1nnc(-c2cc3c(cc2F)S(=O)(=O)C[C@H](N)C(=O)N3Cc2ccc(Cl)cc2)o1 [Example 86]", "qualifier.symbol": "=", "EC50 (µM)": 4.18}
{"molecule": "CC(C)Oc1ccc(CN2C(=O)[C@@H](N)CS(=O)(=O)c3cc(F)c(-c4noc(N5CCOC6(CC6)C5)n4)cc32)nc1 [Example 215]", "qualifier.symbol": "=", "EC50 (µM)": 5.36}
{"molecule": "N[C@H]1CS(=O)(=O)c2cc(F)c(-c3nnc(-c4ccc(F)nc4)o3)cc2N(Cc2ccc(Cl)cc2)C1=O [Example 134]", "qualifier.symbol": "=", "EC50 (µM)": 1.36}
{"molecule": "N[C@H]1CS(=O)(=O)c2cc(F)c(-c3nnc(C4(C(F)(F)F)CC4)o3)cc2N(Cc2ccc(Cl)cc2)C1=O [Example 126]", "qualifier.symbol": "=", "EC50 (µM)": 0.0624}
{"molecule": "CC1(c2nnc(-c3cc4c(cc3F)S(=O)(=O)C[C@H](N)C(=O)N4Cc3ccc(Cl)cc3)o2)CCOCC1 [Example 92]", "qualifier.symbol": "=", "EC50 (µM)": 0.145}
{"molecule": "CC(C)(C)c1nnc(-c2cc3c(cc2F)S(=O)(=O)C[C@H](N)C(=O)N3Cc2ccc(C#N)cc2)o1 [Example 220]", "qualifier.symbol": "=", "EC50 (µM)": 0.238}
{"molecule": "CCCC(=O)N[C@H]1CS(=O)(=O)c2cc(F)c(-c3nnc(C(C)(C)C)o3)cc2N(Cc2ccc(Cl)cc2)C1=O [Example 261]", "qualifier.symbol": "=", "EC50 (µM)": 2.69}
{"molecule": "N[C@H]1CS(=O)(=O)c2cc(F)c(-c3nnc(NC4CCC4)o3)cc2N(Cc2ccc(Cl)cc2)C1=O [Example 459]", "qualifier.symbol": "=", "EC50 (µM)": 0.508}
